Origin of the recorded values: ChEMBL document CHEMBL1134194

Molecular target: Human immunodeficiency virus type 1 reverse transcriptase (Human immunodeficiency virus 1, UniProt Q72547, K103N/Y181C)
Test: Inhibitory activity against non-nucleoside reverse transcriptase inhibitors (NNRTI) -resistant HIV-1 strain A17 variant with Y181C plus K103N mutations in RT (reverse transcriptase)
quantity.name: pIC50
Remember, pIC50 is on a log scale: it is -log10 of the molar concentration.

In [3]: df
Out[3]:
                                   compound  measurement
0  CCC(NC(=S)Nc1nccs1)c1ccccc1 (stereo not drawn)         5.82

Now turn to the next compound.
Incoming: Param item = `S=C(NCCc1c[nH]c2ccccc12)Nc1nccs1` ; retrieve measured pIC50.
Outgoing: 5.43
